- Assayed Target: NPFF1 receptor (Homo sapiens, UniProt Q9GZQ6)
- Sequence (Q9GZQ6 whole entry): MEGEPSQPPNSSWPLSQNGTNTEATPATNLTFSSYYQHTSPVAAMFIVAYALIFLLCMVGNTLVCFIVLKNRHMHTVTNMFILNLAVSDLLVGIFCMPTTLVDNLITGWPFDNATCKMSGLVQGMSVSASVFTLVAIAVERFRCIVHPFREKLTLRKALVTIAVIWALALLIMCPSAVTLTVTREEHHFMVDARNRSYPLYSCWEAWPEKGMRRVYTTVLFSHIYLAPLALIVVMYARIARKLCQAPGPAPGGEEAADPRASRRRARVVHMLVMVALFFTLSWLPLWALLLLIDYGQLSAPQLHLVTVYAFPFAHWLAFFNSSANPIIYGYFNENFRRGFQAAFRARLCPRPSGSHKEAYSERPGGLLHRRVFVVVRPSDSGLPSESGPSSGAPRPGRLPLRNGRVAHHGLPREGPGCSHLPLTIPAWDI
- Assay Explanation: cAMP functional experiment, NPFF1 receptor (forskolin-induced cAMP accumulation)
Bridge positions count the residues as written; N and C are the ends. Square brackets hold non-standard residues; d marks the D form. Peptide text beside a SMILES is read from it. NMeF = CN[C@@H](Cc1ccccc1)C(=O)O; dOrn = NCCC[C@@H](N)C(=O)O
Reported Endpoint: pIC50
Please express pIC50 as -log10 of the molar concentration.

# pIC50 measured on NPFF1 receptor (Homo sapiens, UniProt Q9GZQ6) for item CN1C(=O)CNC(=O)[C@H](NC(=O)[C@@H](N)Cc2ccc(O)cc2)CCCNC(=O)CC[C@@H](C(=O)N2CCC[C@H]2C(=O)N[C@@H](CCC(N)=O)C(=O)N[C@@H](CCCNC(=N)N)C(=O)N[C@@H](Cc2ccccc2)C(N)=O)NC(=O)[C@@H]1Cc1ccccc1 [Compound 11] (H-Y[dOrn]G[NMeF]EPQRF-NH2; lactam 2-5) = 7.37

pIC50 of CN1C(=O)CNC(=O)[C@H](NC(=O)[C@@H](N)Cc2ccc(O)cc2)CCCCNC(=O)C[C@@H](C(=O)NCC(=O)N[C@@H](CCC(N)=O)C(=O)N[C@@H](CCCNC(=N)N)C(=O)N[C@@H](Cc2ccccc2)C(N)=O)NC(=O)[C@@H]1Cc1ccccc1 [Compound 12] (H-Y[dK]G[NMeF]DGQRF-NH2; lactam 2-5) , assay on NPFF1 receptor (Homo sapiens, UniProt Q9GZQ6), is 7.23

For the compound CN1C(=O)CNC(=O)[C@@H](NC(=O)[C@@H](N)Cc2ccc(O)cc2)CCCCNC(=O)C[C@H](C(=O)N2CCC[C@H]2C(=O)N[C@@H](CCC(N)=O)C(=O)N[C@@H](CCCNC(=N)N)C(=O)N[C@@H](Cc2ccccc2)C(N)=O)NC(=O)[C@@H]1Cc1ccccc1 [Compound 4] (H-YKG[NMeF][dD]PQRF-NH2; lactam 2-5) , the measured pIC50 on NPFF1 receptor (Homo sapiens, UniProt Q9GZQ6) was 6.98

* * *

- Assayed Target: Kappa-opioid receptor (Homo sapiens, UniProt P41145)
- Sequence (P41145 whole entry): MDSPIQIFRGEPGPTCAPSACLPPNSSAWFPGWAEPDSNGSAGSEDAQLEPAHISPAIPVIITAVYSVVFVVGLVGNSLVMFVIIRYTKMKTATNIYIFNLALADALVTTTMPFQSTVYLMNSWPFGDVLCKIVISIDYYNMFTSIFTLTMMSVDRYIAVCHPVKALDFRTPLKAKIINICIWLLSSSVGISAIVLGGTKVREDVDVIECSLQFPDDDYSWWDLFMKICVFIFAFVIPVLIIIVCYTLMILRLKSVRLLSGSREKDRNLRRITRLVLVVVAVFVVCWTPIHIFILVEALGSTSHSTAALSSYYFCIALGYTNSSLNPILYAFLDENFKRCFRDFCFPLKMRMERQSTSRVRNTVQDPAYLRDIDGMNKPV
- Assay Explanation: cAMP functional experiment, Kappa-opioid receptor (forskolin-induced cAMP accumulation)
Bridge positions count the residues as written; N and C are the ends. Square brackets hold non-standard residues; d marks the D form. Peptide text beside a SMILES is read from it. NMeF = CN[C@@H](Cc1ccccc1)C(=O)O; dOrn = NCCC[C@@H](N)C(=O)O; dDab = NCC[C@@H](N)C(=O)O; dDap = NC[C@@H](N)C(=O)O
Reported Endpoint: pIC50
Scale: pIC50 equals -log10([C]), with [C] in mol/L.

Log: Kappa-opioid receptor (Homo sapiens, UniProt P41145), compound CN1C(=O)CNC(=O)[C@H](NC(=O)[C@@H](N)Cc2ccc(O)cc2)CCCCNC(=O)CC[C@@H](C(=O)N2CCC[C@H]2C(=O)N[C@@H](CCC(N)=O)C(=O)N[C@@H](CCCNC(=N)N)C(=O)N[C@@H](Cc2ccccc2)C(N)=O)NC(=O)[C@@H]1Cc1ccccc1 [Compound 2] (H-Y[dK]G[NMeF]EPQRF-NH2; lactam 2-5) , pIC50 = 7.53

pIC50 value, target or system Kappa-opioid receptor (Homo sapiens, UniProt P41145), for CN1C(=O)CNC(=O)[C@H](NC(=O)[C@@H](N)Cc2ccc(O)cc2)CNC(=O)C[C@@H](C(=O)N2CCC[C@H]2C(=O)N[C@@H](CCC(N)=O)C(=O)N[C@@H](CCCNC(=N)N)C(=O)N[C@@H](Cc2ccccc2)C(N)=O)NC(=O)[C@@H]1Cc1ccccc1 [Compound 10] (H-Y[dDap]G[NMeF]DPQRF-NH2; lactam 2-5) : 6.87

CN1C(=O)CNC(=O)[C@H](NC(=O)[C@@H](N)Cc2ccc(O)cc2)CCCNC(=O)C[C@@H](C(=O)N2CCC[C@H]2C(=O)N[C@@H](CCC(N)=O)C(=O)N[C@@H](CCCNC(=N)N)C(=O)N[C@@H](Cc2ccccc2)C(N)=O)NC(=O)[C@@H]1Cc1ccccc1 [Compound 8] (H-Y[dOrn]G[NMeF]DPQRF-NH2; lactam 2-5) tested on Kappa-opioid receptor (Homo sapiens, UniProt P41145) gave pIC50: 6.86

Log: Kappa-opioid receptor (Homo sapiens, UniProt P41145), compound CN1C(=O)CNC(=O)[C@H](NC(=O)[C@@H](N)Cc2ccc(O)cc2)CCCCNC(=O)C[C@@H](C(=O)NCC(=O)N[C@@H](CCC(N)=O)C(=O)N[C@@H](CCCNC(=N)N)C(=O)N[C@@H](Cc2ccccc2)C(N)=O)NC(=O)[C@@H]1Cc1ccccc1 [Compound 12] (H-Y[dK]G[NMeF]DGQRF-NH2; lactam 2-5) , pIC50 = 7.01

Reported Kappa-opioid receptor (Homo sapiens, UniProt P41145) pIC50 for item CN1C(=O)CNC(=O)[C@H](NC(=O)[C@@H](N)Cc2ccc(O)cc2)CC(=O)NCCCC[C@@H](C(=O)N2CCC[C@H]2C(=O)N[C@@H](CCC(N)=O)C(=O)N[C@@H](CCCNC(=N)N)C(=O)N[C@@H](Cc2ccccc2)C(N)=O)NC(=O)[C@@H]1Cc1ccccc1 [Compound 6] (H-Y[dD]G[NMeF]KPQRF-NH2; lactam 2-5) was 7.24

Fill in: Kappa-opioid receptor (Homo sapiens, UniProt P41145) pIC50 for CN1C(=O)CNC(=O)[C@H](NC(=O)[C@@H](N)Cc2ccc(O)cc2)CCCNC(=O)CC[C@@H](C(=O)N2CCC[C@H]2C(=O)N[C@@H](CCC(N)=O)C(=O)N[C@@H](CCCNC(=N)N)C(=O)N[C@@H](Cc2ccccc2)C(N)=O)NC(=O)[C@@H]1Cc1ccccc1 [Compound 11] (H-Y[dOrn]G[NMeF]EPQRF-NH2; lactam 2-5) = 6.96

Reading of pIC50 for CN1C(=O)CNC(=O)[C@@H](NC(=O)[C@@H](N)Cc2ccc(O)cc2)CCCCNC(=O)C[C@@H](C(=O)N2CCC[C@H]2C(=O)N[C@@H](CCC(N)=O)C(=O)N[C@@H](CCCNC(=N)N)C(=O)N[C@@H](Cc2ccccc2)C(N)=O)NC(=O)[C@@H]1Cc1ccccc1 [Compound 3] (H-YKG[NMeF]DPQRF-NH2; lactam 2-5) with Kappa-opioid receptor (Homo sapiens, UniProt P41145): 6.49

Test item CN1C(=O)CNC(=O)[C@H](NC(=O)[C@@H](N)Cc2ccc(O)cc2)CCCCNC(=O)C[C@@H](C(=O)N2CCC[C@H]2C(=O)N[C@@H](CCC(N)=O)C(=O)N[C@@H](CCCNC(=N)N)C(=O)N[C@@H](Cc2ccccc2)C(N)=O)NC(=O)[C@@H]1Cc1ccccc1 [Compound 1] (H-Y[dK]G[NMeF]DPQRF-NH2; lactam 2-5) ; Kappa-opioid receptor (Homo sapiens, UniProt P41145); reported pIC50 was 7.41

Let me check: CN1C(=O)CNC(=O)[C@H](NC(=O)[C@@H](N)Cc2ccc(O)cc2)CCNC(=O)C[C@@H](C(=O)N2CCC[C@H]2C(=O)N[C@@H](CCC(N)=O)C(=O)N[C@@H](CCCNC(=N)N)C(=O)N[C@@H](Cc2ccccc2)C(N)=O)NC(=O)[C@@H]1Cc1ccccc1 [Compound 9] (H-Y[dDab]G[NMeF]DPQRF-NH2; lactam 2-5) , system Kappa-opioid receptor (Homo sapiens, UniProt P41145), measured pIC50 is 7.15
